# testTarget: SRC (Homo sapiens, UniProt P12931)
# Sequence (P12931 whole entry): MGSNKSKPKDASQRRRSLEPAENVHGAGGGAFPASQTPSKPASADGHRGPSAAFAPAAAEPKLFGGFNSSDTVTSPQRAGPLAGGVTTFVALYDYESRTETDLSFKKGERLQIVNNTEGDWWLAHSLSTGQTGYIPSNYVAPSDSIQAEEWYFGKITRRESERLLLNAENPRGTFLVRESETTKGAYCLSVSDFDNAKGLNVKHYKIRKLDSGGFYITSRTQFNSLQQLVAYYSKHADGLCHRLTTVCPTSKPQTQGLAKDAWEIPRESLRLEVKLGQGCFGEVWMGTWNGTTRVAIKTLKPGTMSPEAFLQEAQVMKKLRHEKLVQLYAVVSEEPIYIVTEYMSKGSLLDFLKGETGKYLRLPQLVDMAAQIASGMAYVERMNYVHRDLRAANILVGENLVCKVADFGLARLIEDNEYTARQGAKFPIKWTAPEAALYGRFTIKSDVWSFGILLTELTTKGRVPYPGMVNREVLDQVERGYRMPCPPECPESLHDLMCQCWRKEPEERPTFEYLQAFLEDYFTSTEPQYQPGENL
# measurementProtocol: Inhibition of a panel of kinases, in vitro HotSpot kinase assay: SRC
# Assay type: biochemical
# conditionParameters: D-compounds panel data; 1 μM ATP
Each entry below carries its recorded IC50.
readoutLabel: IC50

compound=C[C@@H]1[C@H](NC(=O)c2ccc(C3CC3)cc2)CCCN1c1cnc(C(N)=O)c(Nc2cnn(-c3ccncc3)c2)n1 readoutlabel=IC50 result="10 to 100 nM"
compound=C[C@@H]1[C@H](NC(=O)c2ccc(C(C)(C)O)cc2)CCCN1c1cnc(C(N)=O)c(Nc2cnn(C)c2)n1 readoutlabel=IC50 result="100 to 1000 nM"
compound="C[C@@H]1[C@H](NC(=O)c2ccc(C(C)(O)CO)cc2)CCCN1c1cnc(C(N)=O)c(Nc2cnn(C)c2)n1 (single isomer, unassigned) [Example D-265]" readoutlabel=IC50 result="10 to 100 nM"
compound=C[C@@H]1[C@H](NC(=O)N(C)C)CCCN1c1cnc(C(N)=O)c(Nc2cnn(C)c2)n1 readoutlabel=IC50 result="100 to 1000 nM"
compound=C[C@@H]1[C@H](NC(=O)c2ccc(SC(F)(F)F)cc2)CCCN1c1cnc(C(N)=O)c(Nc2cnn(C)c2)n1 readoutlabel=IC50 result="10 to 100 nM"
compound=Cn1cc(Nc2nc(N3CCC(F)(F)[C@H](NC(=O)c4ccc(C5CC5)cc4)C3)cnc2C(N)=O)cn1 readoutlabel=IC50 result="1000 to 10000 nM"
compound=C[C@@H]1[C@H](NC(=O)N(C)C)CCCN1c1cnc(C(N)=O)c(Nc2cn[nH]c2)n1 readoutlabel=IC50 result="100 to 1000 nM"
compound=CC(C)c1ccc(C(=O)N[C@@H]2CCCN(c3cnc(C(N)=O)c(Nc4cnn(C)c4)n3)[C@@H]2C)cc1 readoutlabel=IC50 result="100 to 1000 nM"
compound=C[C@@H]1[C@H](NC(=O)c2ccc(OC3CC3)cc2)CCCN1c1cnc(C(N)=O)c(Nc2cnn(C)c2)n1 readoutlabel=IC50 result="10 to 100 nM"
compound=CC(C)N1CCN(c2ccc(Nc3nc(N4CCC[C@@H](NC(=O)c5ccc(C6CC6)cc5F)[C@H]4C)cnc3C(N)=O)cc2)CC1 readoutlabel=IC50 result="10 to 100 nM"
compound=C[C@@H]1C[C@@H](NC(=O)c2ccc(C3CC3)cc2)CN(c2cnc(C(N)=O)c(Nc3cnn(C)c3)n2)C1 readoutlabel=IC50 result="100 to 1000 nM"
compound=Cc1cc(Nc2nc(N3CCC[C@@H](c4ncc(-c5ccc(C6CC6)cc5)[nH]4)[C@H]3C)cnc2C(N)=O)sn1 readoutlabel=IC50 result="100 to 1000 nM"
compound="C[C@@H]1[C@H](NC(=O)c2ccc(C(O)C(F)(F)F)cc2)CCCN1c1cnc(C(N)=O)c(Nc2cnn(C)c2)n1 (single isomer, unassigned) [Example D-250]" readoutlabel=IC50 result="10 to 100 nM"

---

# testTarget: UniProt P00533
# Sequence (P00533 25-1210): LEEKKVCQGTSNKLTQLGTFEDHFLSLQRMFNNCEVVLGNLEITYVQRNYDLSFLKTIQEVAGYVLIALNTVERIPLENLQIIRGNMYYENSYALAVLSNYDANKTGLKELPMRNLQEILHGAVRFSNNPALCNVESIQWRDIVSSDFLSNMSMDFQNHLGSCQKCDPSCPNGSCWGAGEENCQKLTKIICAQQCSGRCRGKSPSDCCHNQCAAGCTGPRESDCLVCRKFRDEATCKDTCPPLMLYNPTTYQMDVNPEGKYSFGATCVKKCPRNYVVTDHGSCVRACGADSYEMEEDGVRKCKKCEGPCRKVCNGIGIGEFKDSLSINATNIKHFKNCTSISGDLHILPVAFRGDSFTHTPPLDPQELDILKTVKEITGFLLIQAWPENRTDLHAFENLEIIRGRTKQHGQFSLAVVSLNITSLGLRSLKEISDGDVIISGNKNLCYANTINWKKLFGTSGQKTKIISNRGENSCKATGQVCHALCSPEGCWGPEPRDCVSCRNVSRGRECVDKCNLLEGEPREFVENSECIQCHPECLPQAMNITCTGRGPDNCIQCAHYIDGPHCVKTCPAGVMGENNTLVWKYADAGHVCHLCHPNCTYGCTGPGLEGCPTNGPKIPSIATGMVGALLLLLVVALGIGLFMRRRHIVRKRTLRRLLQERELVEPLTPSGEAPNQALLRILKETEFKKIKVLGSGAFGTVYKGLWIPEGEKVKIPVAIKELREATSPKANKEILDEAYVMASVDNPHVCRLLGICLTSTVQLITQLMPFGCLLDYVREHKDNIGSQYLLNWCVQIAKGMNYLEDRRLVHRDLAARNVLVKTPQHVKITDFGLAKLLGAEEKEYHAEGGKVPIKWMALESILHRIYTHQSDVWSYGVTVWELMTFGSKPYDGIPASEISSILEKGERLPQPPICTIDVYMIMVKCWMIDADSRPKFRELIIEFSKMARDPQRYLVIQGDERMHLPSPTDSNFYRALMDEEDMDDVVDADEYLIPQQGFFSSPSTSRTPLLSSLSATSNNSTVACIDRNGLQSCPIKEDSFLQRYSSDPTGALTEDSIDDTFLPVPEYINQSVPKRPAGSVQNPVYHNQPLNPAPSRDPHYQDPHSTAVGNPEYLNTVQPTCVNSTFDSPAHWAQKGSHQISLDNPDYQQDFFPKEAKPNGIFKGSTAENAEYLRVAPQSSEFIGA
# measurementProtocol: Inhibition of a panel of kinases, in vitro HotSpot kinase assay: EGFR
# Format: biochemical
# conditionParameters: D-compounds panel data; 1 μM ATP
readoutLabel: IC50

compound="C[C@@H]1[C@H](NC(=O)c2ccc(C3CC3)cc2)CCCN1c1cnc(C(N)=O)c(Nc2cn[nH]c2)n1 [Example D-282]" result="1000 to 10000 nM"
compound="Cc1cc(Nc2nc(N3C[C@@H](NC(=O)N(C)C)CC[C@H]3C)cnc2C(N)=O)sn1 [Example D-75]" result="100 to 1000 nM"
compound="C[C@@H]1[C@H](NC(=O)N(C)C)CCCN1c1cnc(C(N)=O)c(Nc2ccc(N3CCN(C)CC3)cc2F)n1 [Example D-52]" result="1000 to 10000 nM"
compound="C[C@@H]1[C@H](n2ccc3cc(C4CC4)ccc3c2=O)CCCN1c1cnc(C(N)=O)c(Nc2ccc(N3CCN(C)CC3)cc2)n1 [Example D-6]" result="100 to 1000 nM"
compound="CN(C)C(=O)N1CC[C@@H]2[C@H]1CCCN2c1cnc(C(N)=O)c(Nc2cnn(C)c2)n1 (racemic) [Example D-50]" result="> 10000 nM"
compound="C[C@@H]1[C@H](NC(=O)c2ccc(C(C)(C)N(C)C)cc2)CCCN1c1cnc(C(N)=O)c(Nc2cnn(C)c2)n1 [Example D-108]" result="1000 to 10000 nM"
compound="C[C@@H]1[C@H](NC(=O)c2ccc(C3CC3)cc2F)CCCN1c1cnc(C(N)=O)c(Nc2ccc(CN3CCN(C)CC3)cc2)c1 [Example D-125]" result="> 10000 nM"
compound="CCN(C)C(=O)N[C@@H]1CCCN(c2cnc(C(N)=O)c(Nc3cnn(C)c3)n2)[C@@H]1C [Example D-304]" result="1000 to 10000 nM"
compound="C[C@@H]1[C@H](NC(=O)c2ccc(C3CC3)cc2F)CCCN1c1cnc(C(N)=O)c(Nc2ccc(N3CCN(C)CC3)cc2)c1 [Example D-126]" result="> 10000 nM"
compound="C[C@@H]1[C@H](NC(=O)c2ccc(C3CC3)cc2)CCCN1c1cnc(C(N)=O)c(Nc2cc(CN3CCCCC3)ns2)n1 [Example D-140]" result="1000 to 10000 nM"
compound="C[C@@H]1[C@H](NC(=O)c2ccc(C(C)(C)O)c(F)c2)CCCN1c1cnc(C(N)=O)c(Nc2cnn(C)c2)n1 [Example D-160]" result="100 to 1000 nM"
compound="C[C@@H]1[C@H](NC(=O)c2ccc(C3CC3)cc2F)CCCN1c1cnc(C(N)=O)c(Nc2ccc(N3CCN(C)CC3)c(F)c2)n1 [Example D-82]" result="100 to 1000 nM"
